Molecular target: SWI/SNF-related matrix-associated actin-dependent regulator of chromatin subfamily A member 4 (Homo sapiens, UniProt P51532)
Test: Binding affinity to human SMARCA4 (A1448 to S1575 residues) expressed in bacterial expression system by BROMOScan assay
pKd: −log10 of the molar value.
READOUT KIND: pKd

The compound COc1cc2c(cc1-c1c(C)noc1C)[nH]c1nc(C)nc(Nc3cc(C4CC4)nn3C)c12 showed pKd equal to < 5.30

###

Target: Histone acetyltransferase KAT2B (Homo sapiens, UniProt Q92831)
Sequence (Q92831 whole entry, the tested form may be a part): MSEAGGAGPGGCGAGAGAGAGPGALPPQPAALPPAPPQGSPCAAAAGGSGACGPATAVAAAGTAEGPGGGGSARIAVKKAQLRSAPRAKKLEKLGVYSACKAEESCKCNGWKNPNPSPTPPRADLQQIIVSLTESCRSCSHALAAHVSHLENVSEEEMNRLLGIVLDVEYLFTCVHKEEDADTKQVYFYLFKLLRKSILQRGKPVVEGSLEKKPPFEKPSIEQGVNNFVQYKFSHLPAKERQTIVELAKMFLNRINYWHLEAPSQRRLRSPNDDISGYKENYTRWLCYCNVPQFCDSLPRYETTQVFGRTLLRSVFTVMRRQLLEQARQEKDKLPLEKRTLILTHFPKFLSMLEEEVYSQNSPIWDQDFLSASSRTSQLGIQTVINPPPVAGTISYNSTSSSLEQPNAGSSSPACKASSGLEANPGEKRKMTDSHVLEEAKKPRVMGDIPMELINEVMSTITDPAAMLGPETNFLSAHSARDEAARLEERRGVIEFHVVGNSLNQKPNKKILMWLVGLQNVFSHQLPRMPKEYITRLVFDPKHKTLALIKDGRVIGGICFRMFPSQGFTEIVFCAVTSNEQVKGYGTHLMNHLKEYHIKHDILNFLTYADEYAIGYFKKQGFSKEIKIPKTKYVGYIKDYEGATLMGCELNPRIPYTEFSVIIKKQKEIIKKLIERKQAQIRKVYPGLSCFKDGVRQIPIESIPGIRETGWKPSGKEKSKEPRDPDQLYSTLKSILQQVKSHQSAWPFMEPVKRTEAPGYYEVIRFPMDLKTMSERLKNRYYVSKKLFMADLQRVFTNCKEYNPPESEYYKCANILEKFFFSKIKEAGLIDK
Experiment: Binding affinity to human PCAF (G715 to D831 residues) expressed in bacterial expression system by BROMOScan assay
READOUT KIND: Kd

The molecule COc1cc2c(cc1-c1c(C)noc1C)[nH]c1nc(C)nc(Nc3cc(C4CC4)nn3C)c12 showed Kd equal to > 5 µM

###

Target: Transcription initiation factor TFIID subunit 1-like (Homo sapiens, UniProt Q8IZX4)
Sequence (Q8IZX4 whole entry, the tested form may be a part): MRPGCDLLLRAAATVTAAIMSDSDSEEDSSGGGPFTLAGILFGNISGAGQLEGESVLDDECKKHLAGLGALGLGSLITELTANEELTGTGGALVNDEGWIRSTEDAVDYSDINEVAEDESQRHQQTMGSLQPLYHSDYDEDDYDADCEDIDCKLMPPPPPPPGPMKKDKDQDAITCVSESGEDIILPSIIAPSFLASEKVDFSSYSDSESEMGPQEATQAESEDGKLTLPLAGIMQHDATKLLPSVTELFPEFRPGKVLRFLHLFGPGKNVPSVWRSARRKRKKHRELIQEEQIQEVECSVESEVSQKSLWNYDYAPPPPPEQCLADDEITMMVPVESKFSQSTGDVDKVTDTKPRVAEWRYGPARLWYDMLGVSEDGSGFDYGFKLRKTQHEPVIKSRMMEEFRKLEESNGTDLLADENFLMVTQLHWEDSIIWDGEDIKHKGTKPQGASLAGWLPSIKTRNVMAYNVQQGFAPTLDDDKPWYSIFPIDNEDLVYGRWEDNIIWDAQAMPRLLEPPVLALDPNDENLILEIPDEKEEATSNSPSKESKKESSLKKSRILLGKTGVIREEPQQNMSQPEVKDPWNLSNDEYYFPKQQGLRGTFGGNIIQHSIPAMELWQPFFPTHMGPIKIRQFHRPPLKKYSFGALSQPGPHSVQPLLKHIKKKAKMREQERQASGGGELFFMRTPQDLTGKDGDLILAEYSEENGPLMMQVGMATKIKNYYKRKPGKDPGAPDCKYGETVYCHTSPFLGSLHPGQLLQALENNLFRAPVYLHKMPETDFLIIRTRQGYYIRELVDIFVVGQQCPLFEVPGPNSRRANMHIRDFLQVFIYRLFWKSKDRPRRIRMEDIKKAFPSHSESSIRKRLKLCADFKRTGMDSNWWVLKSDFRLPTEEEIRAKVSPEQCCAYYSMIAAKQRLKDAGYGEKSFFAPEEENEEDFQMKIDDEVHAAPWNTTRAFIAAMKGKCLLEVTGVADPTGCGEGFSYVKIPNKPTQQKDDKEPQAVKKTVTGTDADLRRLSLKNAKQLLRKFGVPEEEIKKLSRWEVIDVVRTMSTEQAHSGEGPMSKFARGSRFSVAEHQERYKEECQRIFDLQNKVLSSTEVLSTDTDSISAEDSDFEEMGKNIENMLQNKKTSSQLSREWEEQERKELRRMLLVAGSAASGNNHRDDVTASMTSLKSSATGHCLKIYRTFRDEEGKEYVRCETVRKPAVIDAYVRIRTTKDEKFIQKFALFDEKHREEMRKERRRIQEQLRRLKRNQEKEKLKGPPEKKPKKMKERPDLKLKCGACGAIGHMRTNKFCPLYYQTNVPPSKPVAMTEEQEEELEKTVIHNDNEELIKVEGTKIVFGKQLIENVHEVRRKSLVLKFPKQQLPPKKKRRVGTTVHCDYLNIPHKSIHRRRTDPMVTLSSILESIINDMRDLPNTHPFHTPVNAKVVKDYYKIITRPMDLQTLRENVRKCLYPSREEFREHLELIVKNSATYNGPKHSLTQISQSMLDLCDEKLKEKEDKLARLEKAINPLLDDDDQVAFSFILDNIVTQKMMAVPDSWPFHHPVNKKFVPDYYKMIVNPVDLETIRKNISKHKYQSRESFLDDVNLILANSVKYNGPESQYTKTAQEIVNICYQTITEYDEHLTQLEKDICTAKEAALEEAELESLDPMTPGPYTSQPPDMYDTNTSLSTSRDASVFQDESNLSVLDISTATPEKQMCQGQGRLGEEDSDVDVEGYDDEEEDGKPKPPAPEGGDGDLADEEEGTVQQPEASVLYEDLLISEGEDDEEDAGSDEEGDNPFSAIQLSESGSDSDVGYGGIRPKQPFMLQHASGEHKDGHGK
Test: Binding affinity to human TAF1L bromodomain 2 (Q1523 to D1654 residues) expressed in bacterial expression system by BROMOScan assay
READOUT KIND: Kd

The molecule COc1cc2c(cc1-c1c(C)noc1C)[nH]c1nc(C)nc(Nc3cc(C4CC4)nn3C)c12 showed Kd equal to > 5 µM

###

Molecular target: Transcription intermediary factor 1-alpha (Homo sapiens)
Assay: Binding affinity to human TRIM24 (P790 to P977 residues) expressed in bacterial expression system by BROMOScan assay
pKd: −log10 of the molar value.
READOUT KIND: pKd

The compound COc1cc2c(cc1-c1c(C)noc1C)[nH]c1nc(C)nc(Nc3cc(C4CC4)nn3C)c12 showed pKd equal to < 5.40

###

# log10(concentration at 6 h) listing for each entry below
Test: Drug uptake in tumor of SCID mouse xenografted with human MDA-MB-231 cells at 50 mg/kg administered via oral gavage measured after 6 hrs
Assay type: ADME, organism-based, Neoplasm
Conditions: read-out: Drug uptake
Could you please treat all values as log10 of concentration at 6 h in ng/g?

Example entries and their recorded answers appear below.
structure_smiles_string=COc1cc2c(cc1-c1c(C)noc1C)[nH]c1nc(C)nc(Nc3c4c(nn3C)CCCC4)c12 measured_value=2.12
structure_smiles_string=COc1cc2c(cc1-c1c(C)noc1C)[nH]c1nc(C)nc(Nc3cc(C(C)C)nn3C)c12 measured_value=2.22
structure_smiles_string=COc1cc2c(cc1-c1c(C)noc1C)[nH]c1nc(C)nc(Nc3cc(C)nn3C(C)(C)C)c12 measured_value=2.79

The molecule COc1cc2c(cc1-c1c(C)noc1C)[nH]c1nc(C)nc(Nc3cc(C(C)(C)C)nn3C)c12 showed log10(concentration at 6 h) equal to 2.43

The molecule COc1cc2c(cc1-c1c(C)noc1C)[nH]c1nc(C)nc(Nc3cc(C4CC4)nn3C)c12 showed log10(concentration at 6 h) equal to 3.56

The molecule COc1cc2c(cc1-c1c(C)noc1C)[nH]c1nc(C)nc(Nc3c4c(nn3C)CCC4)c12 showed log10(concentration at 6 h) equal to 2.78

###

Molecular target: Bromodomain-containing protein 4 (Homo sapiens, UniProt O60885)
Assay: Inhibition of FAM-labeled ZBA248 binding to recombinant human BRD4 bromodomain 1 (44 to 168 residues) expressed in Rosetta2 Escherichia coli DE3 cells after 30 mins by fluorescence polarization assay
READOUT KIND: pIC50
Scale: negative log10 of molar concentration, which is what pIC50 denotes.

Example entries and their recorded answers appear below.
structure_smiles_string=COc1cc2c(cc1-c1c(C)noc1C)[nH]c1nc(C)nc(Nc3nn(C)c4ncccc34)c12 target_of_assay="Bromodomain-containing protein 4 (Homo sapiens, UniProt O60885)" readout_kind=pIC50 measured_value=7.68
structure_smiles_string=COc1cc2c(cc1-c1c(C)noc1C)[nH]c1nc(C)nc(Nc3n[nH]c4ccccc34)c12 target_of_assay="Bromodomain-containing protein 4 (Homo sapiens, UniProt O60885)" readout_kind=pIC50 measured_value=7.93
structure_smiles_string=COc1cc2c(cc1-c1c(C)noc1C)[nH]c1nc(C)nc(Nc3nn(C)c4cccnc34)c12 target_of_assay="Bromodomain-containing protein 4 (Homo sapiens, UniProt O60885)" readout_kind=pIC50 measured_value=6.64
structure_smiles_string=CCn1nc(C)cc1Nc1nc(C)nc2[nH]c3cc(-c4c(C)noc4C)c(OC)cc3c12 target_of_assay="Bromodomain-containing protein 4 (Homo sapiens, UniProt O60885)" readout_kind=pIC50 measured_value=7.77
structure_smiles_string=COc1cc2c(cc1-c1c(C)noc1C)[nH]c1nc(C)nc(Nc3cc(C)nn3C3CCC3)c12 target_of_assay="Bromodomain-containing protein 4 (Homo sapiens, UniProt O60885)" readout_kind=pIC50 measured_value=7.84

Now let's try a different one.
The molecule COc1cc2c(cc1-c1c(C)noc1C)[nH]c1nc(C)nc(Nc3cc(C4CC4)nn3C)c12 showed pIC50 equal to 8.70

###

Test: AUC in Balb/c mouse at 5 mg/kg, iv by LC-MS/MS analysis
Format: ADME, organism-based
Details: in vivo
READOUT KIND: AUC (µM·h)
Report the value in µM·h with no unit label.

The molecule COc1cc2c(cc1-c1c(C)noc1C)[nH]c1nc(C)nc(Nc3cc(C4CC4)nn3C)c12 showed AUC equal to 9.05

###

Molecular target: Bromodomain-containing protein 4 (Homo sapiens, UniProt O60885)
Experiment: Inhibition of FAM-labeled ZBA248 binding to recombinant human BRD4 bromodomain 1 (44 to 168 residues) expressed in Rosetta2 Escherichia coli DE3 cells after 30 mins by fluorescence polarization assay
# pIC50 listing for each entry below
Scale: negative log10 of molar concentration, which is what pIC50 denotes.

structure_smiles_string=COc1cc2c(cc1-c1c(C)noc1C)[nH]c1nc(C)nc(Nc3c4c(nn3C)CCCC4)c12 measured_value=8.31
structure_smiles_string=COc1cc2c(cc1-c1c(C)noc1C)[nH]c1nc(C)nc(Nc3cc(C)nn3C3CCCC3)c12 measured_value=8.40
structure_smiles_string=COc1ccc2c(Nc3nc(C)nc4[nH]c5cc(-c6c(C)noc6C)c(OC)cc5c34)nn(C)c2c1 measured_value=6.71
structure_smiles_string=COc1cc2c(cc1-c1c(C)noc1C)[nH]c1nc(C)nc(Nc3cc(C(F)(F)F)nn3C)c12 measured_value=7.80

Now let's try a different one.
Bromodomain-containing protein 4 (Homo sapiens, UniProt O60885) assay, molecule COc1cc2c(cc1-c1c(C)noc1C)[nH]c1nc(C)nc(Nc3c4c(nn3C)CCC4)c12 , recorded pIC50 = 8.26

###

Target: Bromodomain-containing protein 4 (Homo sapiens, UniProt O60885)
Assay: Inhibition of FAM-labeled ZBA248 binding to recombinant human BRD4 bromodomain 1 (44 to 168 residues) expressed in Rosetta2 Escherichia coli DE3 cells after 30 mins by fluorescence polarization assay
READOUT KIND: pKi
Scale: negative log10 of molar concentration, which is what pKi denotes.

Example entries and their recorded answers appear below.
structure_smiles_string=COc1cc2c(cc1-c1c(C)noc1C)[nH]c1nc(C)nc(Nc3nn(C)c4cccnc34)c12 measured_value=7.11
structure_smiles_string=COc1cc2c(cc1-c1c(C)noc1C)[nH]c1nc(C)nc(Nc3cc(C(C)(C)C(F)(F)F)nn3C)c12 measured_value=8.62
structure_smiles_string=COc1cc2c(cc1-c1c(C)noc1C)[nH]c1nc(C)nc(Nc3cc(C)nn3C)c12 measured_value=9.10
structure_smiles_string=COc1cc2c(cc1-c1c(C)noc1C)[nH]c1nc(C)nc(Nc3nn(C)c4ncccc34)c12 measured_value=8.31

Now let's try a different one.
The compound COc1cc2c(cc1-c1c(C)noc1C)[nH]c1nc(C)nc(Nc3n[nH]c4ccccc34)c12 showed pKi equal to 8.77

###

Target: Bromodomain testis-specific protein (Homo sapiens, UniProt Q58F21)
Assay: Binding affinity to human BRDT bromodomain 1 (N21 to E137 residues) expressed in bacterial expression system by BROMOscan assay
READOUT KIND: Kd (nM)
Report the value in nM with no unit label.

The molecule COc1cc2c(cc1-c1c(C)noc1C)[nH]c1nc(C)nc(Nc3cc(C4CC4)nn3C)c12 showed Kd equal to 2

###

Test: AUC in Balb/c mouse at 25 mg/kg, po by LC-MS/MS analysis
Assay type: ADME, organism-based
Settings: in vivo
READOUT KIND: AUC
Form entry: enter the amount, then its unit.

The compound COc1cc2c(cc1-c1c(C)noc1C)[nH]c1nc(C)nc(Nc3cc(C4CC4)nn3C)c12 showed AUC equal to 32.2 µM·h

###

Biological target: Bromodomain and WD repeat-containing protein 1 (Homo sapiens, UniProt Q9NSI6)
Sequence (Q9NSI6 whole entry, the tested form may be a part): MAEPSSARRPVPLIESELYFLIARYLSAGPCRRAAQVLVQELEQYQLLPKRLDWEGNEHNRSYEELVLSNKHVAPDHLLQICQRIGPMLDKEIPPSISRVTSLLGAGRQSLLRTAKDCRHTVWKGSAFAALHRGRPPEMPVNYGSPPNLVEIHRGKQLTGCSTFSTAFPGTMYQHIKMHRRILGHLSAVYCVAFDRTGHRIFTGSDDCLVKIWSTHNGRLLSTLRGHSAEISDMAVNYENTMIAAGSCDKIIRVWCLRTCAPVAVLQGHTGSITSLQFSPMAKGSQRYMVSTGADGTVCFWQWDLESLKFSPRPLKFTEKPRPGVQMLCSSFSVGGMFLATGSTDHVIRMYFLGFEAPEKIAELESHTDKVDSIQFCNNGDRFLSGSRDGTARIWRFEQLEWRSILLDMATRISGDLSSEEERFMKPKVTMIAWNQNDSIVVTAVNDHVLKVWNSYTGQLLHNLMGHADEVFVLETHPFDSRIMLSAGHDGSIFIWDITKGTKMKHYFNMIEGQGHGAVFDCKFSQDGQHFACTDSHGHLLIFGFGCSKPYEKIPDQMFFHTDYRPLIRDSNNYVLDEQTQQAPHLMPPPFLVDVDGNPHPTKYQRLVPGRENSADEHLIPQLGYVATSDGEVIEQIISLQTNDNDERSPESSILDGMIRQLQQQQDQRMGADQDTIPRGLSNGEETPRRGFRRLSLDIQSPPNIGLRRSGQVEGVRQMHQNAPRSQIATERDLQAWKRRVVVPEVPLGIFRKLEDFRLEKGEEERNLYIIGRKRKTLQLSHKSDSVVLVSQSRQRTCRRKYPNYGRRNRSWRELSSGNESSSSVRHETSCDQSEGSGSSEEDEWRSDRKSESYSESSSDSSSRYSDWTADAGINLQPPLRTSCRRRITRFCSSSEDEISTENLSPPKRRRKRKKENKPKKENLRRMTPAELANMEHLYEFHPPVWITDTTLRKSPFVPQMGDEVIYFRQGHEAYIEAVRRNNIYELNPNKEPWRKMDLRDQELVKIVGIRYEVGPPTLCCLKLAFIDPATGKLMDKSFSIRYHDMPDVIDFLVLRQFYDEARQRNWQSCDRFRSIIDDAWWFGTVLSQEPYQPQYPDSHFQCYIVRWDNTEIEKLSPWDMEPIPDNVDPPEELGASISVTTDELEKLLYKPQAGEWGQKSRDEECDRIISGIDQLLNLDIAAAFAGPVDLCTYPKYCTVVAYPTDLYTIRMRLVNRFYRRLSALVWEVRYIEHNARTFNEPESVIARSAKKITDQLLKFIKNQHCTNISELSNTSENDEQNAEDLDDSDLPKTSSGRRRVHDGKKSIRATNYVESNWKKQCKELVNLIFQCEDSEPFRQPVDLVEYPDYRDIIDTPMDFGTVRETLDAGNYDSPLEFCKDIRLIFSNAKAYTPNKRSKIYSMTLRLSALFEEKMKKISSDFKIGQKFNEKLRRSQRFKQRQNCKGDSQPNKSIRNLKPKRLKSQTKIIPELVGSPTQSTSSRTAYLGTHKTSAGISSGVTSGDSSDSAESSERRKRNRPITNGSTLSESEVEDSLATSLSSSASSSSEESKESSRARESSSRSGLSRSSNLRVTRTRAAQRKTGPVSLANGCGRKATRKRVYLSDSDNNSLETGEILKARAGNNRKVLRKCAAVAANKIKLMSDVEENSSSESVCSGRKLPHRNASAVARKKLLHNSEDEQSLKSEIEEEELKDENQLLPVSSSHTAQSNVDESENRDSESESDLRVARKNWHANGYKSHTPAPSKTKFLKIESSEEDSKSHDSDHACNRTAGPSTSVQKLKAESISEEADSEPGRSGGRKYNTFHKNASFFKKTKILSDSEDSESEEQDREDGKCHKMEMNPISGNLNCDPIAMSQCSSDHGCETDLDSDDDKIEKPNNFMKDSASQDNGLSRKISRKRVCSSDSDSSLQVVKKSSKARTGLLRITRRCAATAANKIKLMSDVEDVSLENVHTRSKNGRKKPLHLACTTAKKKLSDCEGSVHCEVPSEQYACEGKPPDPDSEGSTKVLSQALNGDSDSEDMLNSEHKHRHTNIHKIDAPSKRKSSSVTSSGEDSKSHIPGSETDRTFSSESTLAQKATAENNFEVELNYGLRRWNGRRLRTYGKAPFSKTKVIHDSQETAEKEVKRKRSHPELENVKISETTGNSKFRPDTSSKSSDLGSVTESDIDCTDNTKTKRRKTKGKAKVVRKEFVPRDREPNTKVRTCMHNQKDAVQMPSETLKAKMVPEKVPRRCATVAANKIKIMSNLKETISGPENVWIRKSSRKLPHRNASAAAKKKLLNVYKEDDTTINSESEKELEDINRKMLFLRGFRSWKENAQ
Test: Binding affinity to human WDR9 bromodomain 2 (A1310 to E1430 residues) expressed in bacterial expression system by BROMOscan assay
READOUT KIND: Kd

The molecule COc1cc2c(cc1-c1c(C)noc1C)[nH]c1nc(C)nc(Nc3cc(C4CC4)nn3C)c12 showed Kd equal to > 5 µM
